test: In vitro binding affinity towards atrionatriuretic peptide receptor (ANP) using [125I]rANP as radioligand in bovine adrenal zonal glomerulosa membranes
readout kind: SC50 (µM)

Reference set (6 entries):
- smiles entry: "c1ccc2c(N3CCCC3)nc(N3CCNCC3)nc2c1"
  unit abbreviation: "µM"
  test result: 4.2
- smiles entry: "CC/N=C(/N)NCCNc1nc(N(CC)CC)nc2ccccc12"
  unit abbreviation: "µM"
  test result: 7.4
- smiles entry: "CCN(CC)c1nc(NCCCN=C(N)N)c2ccccc2n1"
  unit abbreviation: "µM"
  test result: 1.8
- smiles entry: "CN(CCCNC(=O)c1ccco1)c1nc(N2CCCC2)c2ccccc2n1"
  unit abbreviation: "µM"
  test result: 5.6
- smiles entry: "CN(CCCN=C(N)N)c1nc(N2CCCC2)c2ccccc2n1"
  unit abbreviation: "µM"
  test result: 1.5
- smiles entry: "CCN(CC)c1nc(NCCCCN=C(N)N)c2ccccc2n1"
  unit abbreviation: "µM"
  test result: 2.2

A. CCN(CC)c1nc(NCCN=C(N)N)c2ccccc2n1
B. O=C(c1ccco1)N1CCN(c2nc(N3CCCC3)c3ccccc3n2)CC1
Kindly identify which of A and B has the larger recorded SC50 value. To answer, give the label that identifies your chosen option.
B
(B: 7 µM, A: 2.4 µM)

* * *

species on record: Rattus norvegicus; test: Concentration for rANP inhibition of aldosterone synthesis was determined n rat adrenal glomerulosa; format: functional
readout kind: pEC50
// pEC50: -log10(molar conc.)

Need pEC50 of "CCN(CC)c1nc(OC)c2ccccc2n1" , thanks.
9.74
